Entries and their measured koff follow.
targetOrTestSystem: T1, SARS-CoV2 Spike ecto foldon Trimer expressed with a C-terminal myc-myc-hexahistidine (SARS-CoV-2, UniProt P0DTC2 14-1213)
T1 construct: extracellular domain
measurementDescription: SPR Biacore, mAb captured by anti-hFc, 37C
propertyLabel: koff (s⁻¹)

mAb15158 (antibody, V domains shown) VH: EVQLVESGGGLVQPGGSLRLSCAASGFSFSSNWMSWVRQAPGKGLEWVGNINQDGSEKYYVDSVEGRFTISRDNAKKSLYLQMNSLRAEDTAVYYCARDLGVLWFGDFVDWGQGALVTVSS VL: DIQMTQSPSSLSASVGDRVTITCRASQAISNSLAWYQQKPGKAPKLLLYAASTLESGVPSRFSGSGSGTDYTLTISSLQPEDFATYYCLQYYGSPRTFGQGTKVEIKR
4.07e-05
mAb15150 (antibody, V domains shown) VH: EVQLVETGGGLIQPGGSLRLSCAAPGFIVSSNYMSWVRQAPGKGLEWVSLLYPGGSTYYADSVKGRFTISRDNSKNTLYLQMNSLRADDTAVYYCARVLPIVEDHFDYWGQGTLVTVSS VL: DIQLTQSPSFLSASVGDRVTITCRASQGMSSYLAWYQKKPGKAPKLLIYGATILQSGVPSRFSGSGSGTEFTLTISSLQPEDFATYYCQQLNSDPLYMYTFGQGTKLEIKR
3.42e-05
mAb14294 (antibody, V domains shown) VH: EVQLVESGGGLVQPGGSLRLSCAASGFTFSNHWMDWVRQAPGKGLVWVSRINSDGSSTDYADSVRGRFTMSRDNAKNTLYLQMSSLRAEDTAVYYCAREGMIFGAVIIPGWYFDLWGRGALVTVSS VL: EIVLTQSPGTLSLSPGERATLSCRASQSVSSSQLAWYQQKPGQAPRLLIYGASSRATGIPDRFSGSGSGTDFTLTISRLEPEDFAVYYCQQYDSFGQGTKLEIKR
2.29e-05
